Data origin, for the record: paper PMC10266688

- METHOD_SUMMARY: Single dose pharmacokinetics in CD1 mice (IV, IP, PO), plasma LC-MS/MS
- Format: in vivo, mouse
- CONDITION: male, CD1, mouse, in vivo, po, 50 mg/kg
PROPERTY_NAME: k el
Record the result as a number with its unit.

Record summary for N#Cc1ccc(/C=C2/C(=O)/C(=C/c3ccc(C#N)cc3)C23CCNCC3)cc1 [Up284] : reported k el = 1.51e-05 s⁻¹

---

- METHOD_SUMMARY: Single dose pharmacokinetics in CD1 mice (IV, IP, PO), plasma LC-MS/MS
- Type: in vivo, mouse
- CONDITION: male, CD-1, mouse, in vivo, po, 50 mg/kg, Plasma concentration, Mean
PROPERTY_NAME: concentration at 15 min (ng/mL)
Dear colleague, please return just the value in ng/mL, with no unit written.

Record summary for N#Cc1ccc(/C=C2/C(=O)/C(=C/c3ccc(C#N)cc3)C23CCNCC3)cc1 [Up284] : reported concentration at 15 min = 1830

---

- METHOD_SUMMARY: Single dose pharmacokinetics in CD1 mice (IV, IP, PO), plasma LC-MS/MS
- Format: in vivo, mouse
- CONDITION: male, CD1, mouse, in vivo, iv, 5 mg/kg, Plasma concentration
PROPERTY_NAME: concentration at 5 min
Record the result as a number with its unit.

Record summary for N#Cc1ccc(/C=C2/C(=O)/C(=C/c3ccc(C#N)cc3)C23CCNCC3)cc1 : reported concentration at 5 min = 1620 ng/mL
